Listed here are compounds together with their documented Ki.
Biological target: Bcl-2-like protein 1 (Homo sapiens, UniProt Q07817)
Sequence (Q07817 whole entry): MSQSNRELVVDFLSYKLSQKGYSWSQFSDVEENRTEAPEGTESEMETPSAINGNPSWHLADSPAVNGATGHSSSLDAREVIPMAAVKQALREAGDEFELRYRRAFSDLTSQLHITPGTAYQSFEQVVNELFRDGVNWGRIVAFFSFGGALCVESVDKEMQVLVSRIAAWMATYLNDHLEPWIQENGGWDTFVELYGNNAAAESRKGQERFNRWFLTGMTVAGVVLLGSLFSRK
Assay: Inhibition of Bcl-xL (unknown origin)/Bak interaction preincubated for 5 mins followed by fluorescein-labeled peptide addition and measured after 10 mins by fluorescein-labeled peptide displacement based fluorescence polarization assay

Reference set (4 entries):
CC1(C)CCCC2=C1C[C@H](C(=O)O)[C@@H](c1ccccc1)C2 :: > 23 µM
CC1(C)CCCC2=C1C[C@@H](C(=O)O)[C@H](c1ccccc1)C2 :: > 23 µM
CON(C)C(=O)[C@H]1CC=C(CCC=C(C)C)C[C@@H]1c1ccccc1 :: > 23 µM
CC(C)=CCCC1=CC[C@@H](C(=O)O)[C@H](c2ccccc2)C1 :: 9.6 µM

As a next step, examine the compound that follows.
For "CON(C)C(=O)[C@@H]1CC=C(CCC=C(C)C)C[C@H]1c1ccccc1" the compound record lists Ki as > 23 µM
